- System: KB
- PROCEDURE_SUMMARY: Inhibitory activity of compound against KB cell growth
- Format: functional, cell-based
- CONDITION: Homo sapiens
pIC50: −log10 of the molar value.
Attribute: pIC50

Worked examples, 5 compounds total:
• OCCOCn1c(S)nc2c(Cl)c(Cl)ccc21 = < 4.00
• CNc1nc2c(Cl)c(Cl)ccc2n1COCCO = < 4.00
• OCCOCn1cnc2c(Cl)cc(Cl)cc21 = < 4.00
• OCCOCn1cnc2cc(Cl)c(Cl)cc21 = < 4.00
• CN(C)c1nc2cc(Cl)c(Cl)cc2n1COCCO = < 4.00

Please give the measured pIC50 for this compound: `OCCOCn1c(SCc2ccccc2)nc2c(Cl)c(Cl)ccc21`
4.46

Please give the measured pIC50 for this compound: `OCCOCn1c(S)nc2c(Cl)cc(Cl)cc21`
< 4.00

Please give the measured pIC50 for this compound: `CNc1nc2cc(Cl)c(Cl)cc2n1COCCO`
< 4.00

Please give the measured pIC50 for this compound: `OCCOCn1c(Br)nc2c(Cl)c(Cl)ccc21`
< 4.00

Please give the measured pIC50 for this compound: `OCCOCn1c(SCc2ccccc2)nc2cc(Cl)c(Cl)cc21`
4.26

Please give the measured pIC50 for this compound: `OCCOCn1c(S)nc2cc(Cl)c(Cl)cc21`
< 4.00

Please give the measured pIC50 for this compound: `OCCOCn1cnc2c(Cl)c(Cl)ccc21`
< 4.00

Please give the measured pIC50 for this compound: `Nc1nc2cc(Cl)c(Cl)cc2n1COCCO`
< 4.00
